Inhibition of the Potassium Kv1.3 channel (%): recorded values
molecular target: human potassium Kv1.3 (Homo sapiens, UniProt P22001); construct: expressed in transfected cells; host or cells: stably transfected cells grown in serum-free medium for CHO cells (CHO inferred from the medium); assay: Potassium Kv1.3 autopatch electrophysiology method, percentage charge inhibition; format: cell-based; conditions: concentration not given (compounds made up at 1 μM and 10 μM)
Sequence (P22001 whole entry): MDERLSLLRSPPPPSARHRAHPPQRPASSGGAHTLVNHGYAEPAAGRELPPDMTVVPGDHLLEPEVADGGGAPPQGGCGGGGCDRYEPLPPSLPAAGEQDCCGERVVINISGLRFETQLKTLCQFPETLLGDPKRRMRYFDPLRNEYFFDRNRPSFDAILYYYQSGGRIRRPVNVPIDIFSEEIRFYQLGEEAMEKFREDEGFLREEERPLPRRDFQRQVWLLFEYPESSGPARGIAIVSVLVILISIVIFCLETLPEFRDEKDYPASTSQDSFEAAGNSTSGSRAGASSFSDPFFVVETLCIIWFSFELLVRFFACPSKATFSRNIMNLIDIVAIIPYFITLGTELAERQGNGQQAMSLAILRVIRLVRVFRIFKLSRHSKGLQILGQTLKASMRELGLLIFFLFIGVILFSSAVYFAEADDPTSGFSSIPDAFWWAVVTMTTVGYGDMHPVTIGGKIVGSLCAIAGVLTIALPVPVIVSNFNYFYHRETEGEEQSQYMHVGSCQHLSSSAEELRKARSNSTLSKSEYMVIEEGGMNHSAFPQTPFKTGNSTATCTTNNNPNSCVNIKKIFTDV
measurement name: Inhibition of the Potassium Kv1.3 channel (%)

>  <compound>
CCc1c(C(=O)NN2CCCCC2)nn(-c2ccc(Cl)cc2Cl)c1-c1ccc(Br)cc1 [SR-147778, reference compound]

>  <result unit>
%

>  <reported value>
63.7

$$$$
>  <compound>
CN1CCC(CNC(=NS(=O)(=O)c2ccc(Cl)cc2)N2CC(c3ccccc3)C(c3ccc(Cl)cc3)=N2)C1 (stereo not shown)

>  <result unit>
%

>  <reported value>
96.2

$$$$
>  <compound>
CNC(=NS(=O)(=O)N1CCC(O)CC1)N1CC(c2ccccc2)C(c2ccc(Cl)cc2)=N1 (stereo not shown)

>  <result unit>
%

>  <reported value>
92.8

$$$$
>  <compound>
O=S(=O)(N=C(NCCF)N1CC(c2ccccc2)C(c2ccc(Cl)cc2)=N1)c1ccc(Cl)cc1 (stereo not shown)

>  <result unit>
%

>  <reported value>
77.1

$$$$
>  <compound>
CNC(=NS(=O)(=O)c1ccc(Cl)cc1)N1CC(c2cccnc2)C(c2ccc(Cl)cc2)=N1 (stereo not shown)

>  <result unit>
%

>  <reported value>
88.7

$$$$
>  <compound>
CCN(CC)C(=O)c1cn(-c2ccc(Cl)cc2)c(-c2ccc(Cl)cc2Cl)n1

>  <result unit>
%

>  <reported value>
76.2

$$$$
>  <compound>
CC1=Nc2ccc(Cl)cc2S(=O)(=O)N1 [Diazoxide, reference compound]

>  <result unit>
%

>  <reported value>
46.5

$$$$

====

target: human potassium Kv1.3 (Homo sapiens, UniProt P22001); construct: expressed in transfected cells; host or cells: stably transfected cells grown in serum-free medium for CHO cells (CHO inferred from the medium); experiment: Potassium Kv1.3 autopatch electrophysiology method, percentage charge inhibition; type: cell-based; settings: concentration not given (compounds made up at 1 μM and 10 μM)
measurement name: Inhibition of the Potassium Kv1.3 channel (%)

>  <molecule>
CNC(=NS(=O)(=O)N(C)C)N1CC(c2cccc(F)c2)C(c2ccc(Cl)cc2)=N1 (centres unmarked)

>  <reported value>
88.1

$$$$
>  <molecule>
CCCCCCC(C)(C)c1cc(OC)c([C@H]2C=C(CO)[C@H]3C[C@@H]2C3(C)C)c(OC)c1 [HU-308, reference compound]

>  <reported value>
81.2

$$$$
>  <molecule>
CC1(NC2=NS(=O)(=O)c3sc(Cl)cc3N2)CC1 [NN414, reference compound]

>  <reported value>
45.1

$$$$
>  <molecule>
CN(C)CCNC(=NS(=O)(=O)N1CCCCC1)N1CC(c2ccccc2)C(c2ccc(Cl)cc2)=N1 (centres unmarked)

>  <reported value>
58.4

$$$$
>  <molecule>
CON/C(=N\S(=O)(=O)c1ccc(Cl)cc1)N1C[C@H](c2cccc(F)c2)C(c2ccc(Cl)cc2)=N1

>  <reported value>
76.0

$$$$
>  <molecule>
CN[C@@H](Cc1c[nH]c2ccccc12)C(=O)N1CC(c2ccccc2)C(c2ccc(Cl)cc2)=N1 (some centres unmarked)

>  <reported value>
87.8

$$$$
>  <molecule>
Cc1c(C(=O)NN2CCCCC2)nn(-c2ccc(Cl)cc2Cl)c1-c1ccc(Cl)cc1 [Rimonabant, reference compound]

>  <reported value>
89.2

$$$$
>  <molecule>
Cc1c(C(=O)c2cccc3ccccc23)c2cccc3c2n1[C@H](CN1CCOCC1)CO3 [R(+)-WIN55212-2, reference compound]

>  <reported value>
81.5

$$$$
